# System: VDR homodimer (NR concentration 270 nM)
# Assay Overview: PBM binding z-score (relative to random genomic background probes); higher = stronger binding; sequences stand for … in GC…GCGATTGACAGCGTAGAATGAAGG
Assign PBM binding z-score to each entry below.
Hey, just send me the number, nothing else.

Q) Given the entry TCTATTAGTTGAAGGGCAACCGTCGAGTCCGTTT , report its measured PBM binding z-score.
A) 1.61

Q) Recorded PBM binding z-score for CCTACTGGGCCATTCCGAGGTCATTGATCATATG , please?
A) 4.08

Q) Can you share its PBM binding z-score? I mean this sequence: ATCTCTAGGTAACAAGTTCTGTGAAAGAGAGGAC
A) 0.424

Q) I would be grateful if you could share the reported PBM binding z-score for ATATGTAGGTTAGCTTGGGTCATTCAGACTAGGC .
A) 1.36

Q) Need PBM binding z-score, item TTACCAAGGTGAAAGGTCGTTAATGCACGCCTTG
A) 0.976

Q) Return reported PBM binding z-score; argument: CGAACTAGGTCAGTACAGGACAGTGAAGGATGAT
A) 0.105

###

# Tested on: RARa homodimer (NR concentration 270 nM)
# Assay Overview: PBM binding z-score (relative to random genomic background probes); higher = stronger binding; sequences stand for … in GC…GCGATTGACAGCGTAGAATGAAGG
Could you please report measured PBM binding z-score for the items listed next?
Give your answer as a number; write no unit.

Q) PBM binding z-score lookup needed for TCATATAGGTAAATGTTAGGTGAAAGTCCGATCT , thanks.
A) 1.9

Q) What measured PBM binding z-score goes with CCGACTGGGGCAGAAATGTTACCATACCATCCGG ?
A) -0.698

Q) What value of PBM binding z-score has been reported for the following sequence? ATCGAAAGGTCGTGAGGCGAGTATACAGAAAGGC
A) 0.41

Q) For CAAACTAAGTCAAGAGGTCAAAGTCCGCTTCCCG , what is its reported PBM binding z-score?
A) 2

Q) Report PBM binding z-score for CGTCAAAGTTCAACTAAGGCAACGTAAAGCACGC please.
A) 1.59

Q) What measured PBM binding z-score goes with CCTAGTTGGGCAAGGTCACACACGCTATAGGTAC ?
A) 1.63

###

# System: PPARg DBDmut:RXRa IVT, anti-PPARg (DBD mutation: PPARg1 K132A/R137A, NR concentration 270 nM, RXRa partner concentration 90 nM)
# Assay Overview: PBM binding z-score (relative to random genomic background probes); higher = stronger binding; sequences stand for … in GC…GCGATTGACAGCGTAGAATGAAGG
Measurement Name: PBM binding z-score

Q) Consider the sequence shown here: TAGCCTAGGTCATGCGGGCCATTATAGTGTCGGC What is its recorded PBM binding z-score?
A) 0.0501

Q) Recorded PBM binding z-score of GCTGCTAGGTCAACTGATGGTCAGCTTAAGCTCG , please.
A) -0.326

Q) Which PBM binding z-score value is on record for TTTCAAAGTTCAAAGGTAACGTAAGTATCCACAC ?
A) 1.49

Q) # lookup: PBM binding z-score of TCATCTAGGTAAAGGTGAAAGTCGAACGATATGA
A) 1.07

Q) Which PBM binding z-score reading was recorded for the sequence CTCGAAAGGTCCGTTGAGGTGAGTATACGGATAA ?
A) 0.113

Q) Need PBM binding z-score of CTACCTAGGTGAACAAGGTCGTTGATTACTATTC , thanks.
A) 0.734
